System: Ruminococcus gnavus DSM 108212
Experimental protocol: growth (OD595) fold change vs plate DMSO controls (fold change (ratio)); higher = more growth
Setup conditions: incubation time: 27 h, anaerobic, 37 °C
Where a name gives a salt, the structure may show the parent alone.
So I've got a bunch of molecules here, and I need their growth values.
Lab note: jot down the number only; don't add units.

Q) Quick check: growth of CC(CN(C)C)C(C)(O)Cc1ccc(Cl)cc1 (stereo not given) [Clobutinol hydrochloride] (20 µM) ?
A) 1.26

Q) Any idea what growth was measured for N=C(N)NC(=O)Cc1c(Cl)cccc1Cl [Guanfacine hydrochloride] (20 µM) ?
A) 0.811

Q) Find the recorded growth belonging to CO/N=C(\C(=O)N[C@@H]1C(=O)N2C(C(=O)O)=C(C[N+]3(C)CCCC3)CS[C@H]12)c1csc(N)n1 [Cefepime hydrochloride] (20 µM) and report it.
A) 0

Q) What does the data say about its growth? Entry: CN1CCC(=C2c3ccccc3CCc3sccc32)CC1 [Pizotifen malate] (20 µM)
A) 0.963

Q) What value of measured growth is listed for CC(C)(C)NC(=O)[C@@H]1C[C@@H]2CCCC[C@@H]2CN1C[C@@H](O)[C@H](Cc1ccccc1)NC(=O)[C@H](CC(N)=O)NC(=O)c1ccc2ccccc2n1 [Saquinavir mesylate] (20 µM) ?
A) 1.12

Q) Using the record for CC(=O)N1CCN(c2ccc(OCC3COC(Cn4ccnc4)(c4ccc(Cl)cc4Cl)O3)cc2)CC1 (stereo not given) [Ketoconazole] (20 µM) , report its growth.
A) 0.945

Q) Find the recorded growth belonging to CCOC(=O)c1ccc(C#Cc2ccc3c(c2)C(C)(C)CCS3)nc1 [Tazarotene] (20 µM) and report it.
A) 0.972

Q) Dear colleague, I am looking for the recorded growth of the following molecule: CC[C@@]1(O)C(=O)OCc2c1cc1n(c2=O)Cc2cc3c(CN(C)C)c(O)ccc3nc2-1 [Topotecan] (20 µM)
A) 0.99

Q) I have this molecule here, NCCNCCNCCNCCN [Tetraethylenepentamine pentahydrochloride] (20 µM) , and I need its recorded growth.
A) 0.923

Q) # lookup: growth of C[C@H](O)[C@H](O)[C@H]1CNc2[nH]c(N)nc(=O)c2N1 [Sapropterin dihydrochloride] (20 µM)
A) 0.813

Q) So what does the record say about growth for COc1ccc2c(c1)c(CC(=O)O)c(C)n2C(=O)c1ccc(Cl)cc1 [Indomethacin] (20 µM) ?
A) 1.04

Q) Record request: growth value, item CC(C)C(=O)OCC(=O)[C@@]12O[C@H](C3CCCCC3)O[C@@H]1C[C@H]1[C@@H]3CCC4=CC(=O)C=C[C@]4(C)[C@H]3[C@@H](O)C[C@@]12C [Ciclesonide] (20 µM)
A) 1.17

Q) What value of growth has been reported for the following molecule? CCCC(=O)N1CCCN(c2nc(N)c3cc(OC)c(OC)cc3n2)CC1 [Bunazosin hydrochloride] (20 µM)
A) 1.06

Q) Quick one: growth of CCCOc1ccc(C(=O)OCCN(CC)CC)cc1N [Proparacaine hydrochloride] (20 µM) ?
A) 1.03

Q) Reported growth, molecule COc1ccc2c(c1)N(C[C@H](C)CN(C)C)c1ccccc1S2 [Methotrimeprazine maleate salt] (20 µM) : ____
A) 1.05

Q) growth for Oc1ccc(C2CNCCc3c2cc(O)c(O)c3Cl)cc1 (stereo not given) [Fenoldopam] (20 µM) ?
A) 0.973

Q) Any idea what its growth is? The molecule is CN1CCN(C(c2ccccc2)c2ccc(Cl)cc2)CC1 (stereo not given) [Chlorcyclizine hydrochloride] (20 µM)
A) 0.999

Q) Fill in: growth of Cc1ccc(-c2ncc(Cl)cc2-c2ccc(S(C)(=O)=O)cc2)cn1 [Etoricoxib] (20 µM) is ___
A) 0.73

Q) What measured growth goes with O=C(CO)[C@@H](O)[C@H](O)[C@@H](CO)O[C@H]1O[C@H](CO)[C@@H](O)[C@H](O)[C@H]1O [Leucrose] (50 µM) ?
A) 0.99

Q) Query (molecule): CN(C)CCCN1c2ccccc2Sc2ccc(Cl)cc21 [Chlorpromazine hydrochloride] (20 µM) ; field requested: growth
A) 1.29

Q) Any idea what its growth is? The molecule is OC(CCN1CCCCC1)(c1ccccc1)c1ccccc1 [Pridinol methanesulfonate salt] (20 µM)
A) 1.02

Q) Record request: growth value, item COc1ccc(C(=O)c2ccccc2O)c(O)c1 [Dioxybenzone] (20 µM)
A) 0.955

Q) Look up growth: NCCCC(O)(P(=O)(O)O)P(=O)(O)O [Alendronate sodium] (20 µM)
A) 1.03

Q) Fill blank: measured growth of the molecule CCC(=O)O[C@]1(C(=O)CCl)[C@@H](C)C[C@H]2[C@@H]3CCC4=CC(=O)C=C[C@]4(C)[C@@]3(F)[C@@H](O)C[C@@]21C [Clobetasol propionate] (20 µM) is ____.
A) 0.908

Q) Please give the measured growth for this molecule: C[N+]1(C)CCC(OC(=O)C(O)(c2ccccc2)C2CCCC2)C1 (stereo not given) [Glycopyrrolate bromide] (20 µM)
A) 0.959

Q) May I ask what growth has been recorded for O=C1Nc2ccc(Cl)cc2[C@@](C#CC2CC2)(C(F)(F)F)O1 [Efavirenz] (20 µM) ?
A) 1.22

Q) Need growth of COCCCC/C(=N\OCCN)c1ccc(C(F)(F)F)cc1 [Fluvoxamine maleate] (20 µM) , thanks.
A) 0.962

Q) Need growth, item CCN(CC)CCOC(=O)c1ccc(N)cc1 [Procaine hydrochloride] (20 µM)
A) 1.23

Q) Query: growth; subject: C=C1C[C@@]23CC[C@H]4[C@@](C)(CCC[C@@]4(C)C(=O)O[C@@H]4O[C@H](CO)[C@@H](O)[C@H](O)[C@H]4O)[C@@H]2CC[C@]1(O[C@@H]1O[C@H](CO)[C@@H](O)[C@H](O)[C@H]1O)C3 [Rubusoside] (50 µM)
A) 1.01

Q) What growth value was documented for this molecule, CC(=O)c1ccc(S(=O)(=O)NC(=O)NC2CCCCC2)cc1 [Acetohexamide] (20 µM) ?
A) 1.33

----------
System: Escherichia coli IAI1
Experimental protocol: growth (OD595) fold change vs plate DMSO controls (fold change (ratio)); higher = more growth
Setup conditions: incubation time: 27 h, anaerobic, 37 °C
Counter-ions that a name gives are not always drawn.
Exercise: state measured growth for each of the compounds provided.
Lab note: jot the number down without any unit.

Q) Write down the reported growth of Cc1c(Cl)cccc1Nc1ncccc1C(=O)O [Clonixin lysinate] (20 µM) , test system: Escherichia coli IAI1.
A) 1.07

Q) Notebook entry, Escherichia coli IAI1 assay: growth of CC(NCCc1ccc(O)cc1)C(O)c1ccc(O)cc1 (stereo not given) [Ritodrine hydrochloride] (20 µM) = ?
A) 0.987

Q) Observed growth on Escherichia coli IAI1 for CCOC(=O)[C@H](CCc1ccccc1)N[C@H]1CS[C@H](c2cccs2)CN(CC(=O)O)C1=O [Temocapril hydrochloride] (20 µM) , please.
A) 1.05

Q) // fetch Escherichia coli IAI1 growth for CCCCN1CCCCC1C(=O)Nc1c(C)cccc1C (stereo not given) [Bupivacaine hydrochloride] (20 µM)
A) 1.07

Q) Enter reported growth observed with Escherichia coli IAI1 for O=C(O)CNC(=O)C(CS)Cc1ccccc1 (stereo not given) [Thiorphan] (20 µM)
A) 1.02

----------
System: Clostridium sporogenes DSM 1664
Experimental protocol: fold change of Tryptamine concentration vs plate DMSO controls (fold change (ratio)); higher = more amine produced, active = hit call of the paper (significant change in both replicates, either direction)
Setup conditions: incubation time: 27 h, anaerobic, 37 °C
Structures can show the parent of a compound that is named as a salt.
Attribute measured: fold change of Tryptamine concentration
Provide a numeric answer; units are not to be included.

Q) # lookup: fold change of Tryptamine concentration of CCN(CC)CCNC(=O)c1cc(S(C)(=O)=O)ccc1OC [Tiapride hydrochloride] (20 µM)
A) 0.999

Q) Bench note: what fold change of Tryptamine concentration did Nc1nc(CC(=O)Nc2ccc(CCNC[C@H](O)c3ccccc3)cc2)cs1 [Mirabegron] (20 µM) show?
A) 1.02

Q) Data request, read-out fold change of Tryptamine concentration, for CCc1ccc(C(=O)C(C)CN2CCCCC2)cc1 (stereo unspecified) [Eperisone Hydrochloride] (20 µM)
A) 1.04

Q) Query: fold change of Tryptamine concentration; subject: CCCOc1ccc2[nH]c(NC(=O)OC)nc2c1 [Oxibendazol] (20 µM)
A) 0.982

Q) What value of fold change of Tryptamine concentration has been recorded for this entry: O=C1NCC2(CCN(CCc3ccccc3)CC2)O1 [Fenspiride hydrochloride] (20 µM)
A) 1.02

Q) I would be grateful if you could share the reported fold change of Tryptamine concentration for CC(=O)O[C@H]1C(=O)[C@@]2(C)[C@H]([C@H](OC(=O)c3ccccc3)[C@]3(O)C[C@H](OC(=O)[C@H](O)[C@@H](NC(=O)c4ccccc4)c4ccccc4)C(C)=C1C3(C)C)[C@]1(OC(C)=O)CO[C@@H]1C[C@@H]2O [Paclitaxel] (20 µM) .
A) 0.975

Q) Look up fold change of Tryptamine concentration for this compound: CCN(CCCc1ccccc1)CCCc1ccccc1 [Alverine citrate salt] (20 µM)
A) 1.03

Q) Given NNc1nncc2ccccc12 [Hydralazine hydrochloride] (20 µM) , state its recorded fold change of Tryptamine concentration.
A) 0.967

Q) Please look up its fold change of Tryptamine concentration: CC(=O)NS(=O)(=O)c1ccc(NC(=O)c2ccccc2C(=O)O)cc1 [Phthalylsulfacetamide] (20 µM)
A) 1.05

Q) // query fold change of Tryptamine concentration value for entry N=c1ccn2c(n1)O[C@H]1[C@H](O)[C@@H](CO)O[C@H]12 [Ancitabine hydrochloride] (20 µM)
A) 0.98

Q) # input compound: CCN[C@@H]1C[C@H](N)[C@@H](O[C@H]2OC(CN)=CC[C@H]2N)[C@H](O)[C@H]1O[C@H]1OC[C@](C)(O)[C@H](NC)[C@H]1O [Netilmicin sulfate] (20 µM) ; wanted: its fold change of Tryptamine concentration
A) 1.02

Q) GET /values?readout=fold change of Tryptamine concentration&item= CC(C)(C)C(=O)C(Oc1ccc(Cl)cc1)n1ccnc1 (stereo unspecified) [Climbazole] (20 µM)
A) 1.04

Q) Form field: reported fold change of Tryptamine concentration of OCC1(O)OC[C@@H](O)[C@@H](O)[C@H]1O (stereo partly specified) [Psicose] (50 µM)
A) 0.991

Q) If you can, please state the reported fold change of Tryptamine concentration value of Nc1nnc(-c2cccc(Cl)c2Cl)c(N)n1 [Lamotrigine] (20 µM) .
A) 1.03

Q) Suppose we examine the compound CCC1(c2ccccc2)C(=O)NCNC1=O [Primidone] (20 µM) ; what fold change of Tryptamine concentration value has been reported?
A) 0.973

Q) Any idea what fold change of Tryptamine concentration was measured for Cn1c(=O)c2c(ncn2CC2OCCO2)n(C)c1=O [Doxofylline] (20 µM) ?
A) 1.05

Every entry's value here was drawn from the supplement of paper PMC12494721.
